- System: SW-620 colon
- test-summary: NCI-60 one-dose screen, 48 h
- reported-conditions: 10 µM unless noted
About 83,000 compounds went through this panel and 20% of them were active in at least one assay; those are over-represented in the sample as a whole. Calls of active or inactive are those of the source. Rule for the calls: active = growth percent below 10; inactive = the rest.
Labels: True (active), False (inactive)

{"compound-structure-string": "Fc1ccc(-c2cc3nc(C(Cl)Cl)nc(-c4cccs4)n3n2)cc1", "tested-system": "SW-620 colon", "class-name": "True"}
{"compound-structure-string": "COc1ccc(/C=C/C(=O)c2nnn(-c3ccc(Br)cc3)c2C)cc1OC", "tested-system": "SW-620 colon", "class-name": "False"}
{"compound-structure-string": "O=C(CN1C(=O)CSC1=O)Nc1ccc(C(=O)/C=C/c2cc3ccccc3nc2Cl)cc1", "tested-system": "SW-620 colon", "class-name": "False"}
{"compound-structure-string": "NC(=O)C(=Cc1ccc(Cl)cc1)C(N)=O", "tested-system": "SW-620 colon", "class-name": "False"}
{"compound-structure-string": "O=C(COc1ccc(/C=C2\\SC(=O)NC2=O)cc1)Nc1ccc(C(=O)/C=C/c2cc3ccccc3nc2Cl)cc1", "tested-system": "SW-620 colon", "class-name": "False"}

* * *

- Test system: ACHN renal
- test-summary: NCI-60 one-dose screen, 48 h (100 = growth as untreated, 0 = no growth, -100 = all killed)
- reported-conditions: 10 µM unless noted
Compounds without any hit were thinned out: in the full panel of roughly 83,000, 20% have a hit.
So basically: is growth under 90%? Then MET. Not under? Then NOT MET.

{"compound": "COc1cc(C(=O)c2cc(C(C)=O)c3c4ccccc4ccn23)cc(OC)c1OC", "class-name": "MET"}
{"compound": "CCCCCCCCCC[C@@H](C)[C@@H]1CC(=O)N[C@H]([C@@H](C)O)C(=O)N[C@@H](C)C(=O)N[C@H](C)C(=O)N[C@@H](CCC(N)=O)C(=O)N[C@H](Cc2ccc(O)cc2)C(=O)N[C@@H](C(C)CC)C(=O)O1 (stereo partly drawn)", "class-name": "NOT MET"}
{"compound": "Cn1cc(-c2nn3cc(-c4ccncc4)nc3s2)c2cc(Cl)ccc21", "class-name": "MET"}
{"compound": "Cc1ccc(-c2cc(-c3ccc(N(C)C)cc3)n3c(n2)nc2ccccc23)cc1", "class-name": "MET"}
{"compound": "CCN(CC)Cc1c(-c2cccc(OC(F)(F)F)c2)[nH]c2ccc(N3CCCC3)cc2c1=O", "class-name": "NOT MET"}
{"compound": "C/C(=C(/C)C1CC1CCN(C(=O)c1ccccn1)S(=O)(=O)c1ccc(C)cc1)C1CCCCC1 (stereo not drawn)", "class-name": "NOT MET"}
{"compound": "O=C1[C@@H]2Cc3c([nH]c4ccccc34)[C@H](c3c(Cl)cccc3Cl)N2C(=O)CN1C1CCN(Cc2c(F)cccc2F)CC1", "class-name": "MET"}

* * *

- Tested on: MALME-3M melanoma
- test-summary: NCI-60 one-dose screen, 48 h
- reported-conditions: 10 µM unless noted
The panel holds about 83,000 compounds, 20% with a hit somewhere; the sample as a whole holds those more often. Calls of active or inactive are those of the source. Rule for the calls: active = growth percent below 10; inactive = the rest.
Labels: active, inactive

{"compound": "Cc1cn(-c2cc(NC(=O)c3cncc(C#Cc4cnc5ccc(O[C@H]6CCOC6)nn45)c3)cc(C(F)(F)F)c2)cn1", "tested-system": "MALME-3M melanoma", "class-name": "inactive"}
{"compound": "O=C(NNc1nc2cc(F)c(F)cc2n2cccc12)c1cccnn1", "tested-system": "MALME-3M melanoma", "class-name": "inactive"}
{"compound": "CC1(C)CC[C@]2(C(=O)O)CC[C@]3(C)C(=CCC4[C@@]5(C)C[C@@H](O)[C@@H]6OC(c7ccccc7O)OC[C@@]6(C)C5CC[C@]43C)C2C1 (stereo partly drawn)", "tested-system": "MALME-3M melanoma", "class-name": "inactive"}
{"compound": "COc1cc(CNC(=O)/C=C/c2ccccc2)ccc1OCC(=O)NO", "tested-system": "MALME-3M melanoma", "class-name": "inactive"}
{"compound": "O=C(CCCCCCN1CC(=O)N2[C@@H](c3ccccc3)c3[nH]c4ccccc4c3C[C@H]2C1=O)NO", "tested-system": "MALME-3M melanoma", "class-name": "inactive"}
{"compound": "Cc1ccc(NC(=O)c2cccc(CN3CCN(C)CC3)c2)cc1Oc1ccc(-c2[nH]nc3ncnc(N)c23)cc1", "tested-system": "MALME-3M melanoma", "class-name": "inactive"}
{"compound": "COc1ccc2c(c1)oc1c3[nH]c4ccccc4c3c3c(c21)C(=O)N(O)C3=O", "tested-system": "MALME-3M melanoma", "class-name": "inactive"}
{"compound": "O=C(O)CNS(=O)(=O)c1ccc(Oc2ccc(S(=O)(=O)NCC(=O)O)cc2)cc1", "tested-system": "MALME-3M melanoma", "class-name": "inactive"}
{"compound": "COc1cc2c3c(n(CCCN4CCCCC4)c(=O)c2cc1OC)-c1cc2c(cc1C3=O)OCO2", "tested-system": "MALME-3M melanoma", "class-name": "active"}
{"compound": "Cc1cc(O)c2c(c1)C(=O)C(c1c(C)cc3c(c1O)C(=O)C=CC3=O)=CC2=O", "tested-system": "MALME-3M melanoma", "class-name": "active"}
{"compound": "O=C(/C=C1\\C=CN(CCCCF)c2ccccc21)n1ccc2ccccc21", "tested-system": "MALME-3M melanoma", "class-name": "inactive"}
{"compound": "C#CCOc1ccc(/C=N/Nc2nc(-c3cc(Cl)ccc3Cl)cs2)cc1", "tested-system": "MALME-3M melanoma", "class-name": "inactive"}
{"compound": "COc1ccc(N2C(=O)c3cc(OC)c(OC)cc3NC2SCc2ccccc2)cc1 (stereo not drawn)", "tested-system": "MALME-3M melanoma", "class-name": "inactive"}
{"compound": "C#C[C@]1(O)CC[C@H]2[C@@H]3CC=C4c5sc(-c6cccc(F)c6)nc5CC[C@]4(C)[C@H]3CC[C@@]21C", "tested-system": "MALME-3M melanoma", "class-name": "inactive"}
{"compound": "N/C(=N\\OC(=O)CSc1nc2ccccc2s1)c1ccc(Cl)cc1", "tested-system": "MALME-3M melanoma", "class-name": "inactive"}
{"compound": "C/C(=C(/C)C1CC1CCN(C(=O)c1ccccn1)S(=O)(=O)c1ccc(C)cc1)C1CCCCC1 (stereo not drawn)", "tested-system": "MALME-3M melanoma", "class-name": "inactive"}
{"compound": "COc1ccc([C@H]2[C@H](O)C(=O)N2c2cc(OC)c(OC)c(OC)c2)cc1", "tested-system": "MALME-3M melanoma", "class-name": "inactive"}
{"compound": "CC1=C2C(=C[C@@](C)(COS(N)(=O)=O)[C@@H]2O)C(=O)[C@](C)(O)C12CC2", "tested-system": "MALME-3M melanoma", "class-name": "inactive"}

* * *

- Tested on: T-47D breast
- test-summary: NCI-60 one-dose screen, 48 h (100 = growth as untreated, 0 = no growth, -100 = all killed)
- reported-conditions: 10 µM unless noted
This is part of a sample that, as a whole, favours compounds with a hit. Of some 83,000 tested, about 20% had one in any assay.
growth values for the compounds below.
test-readout: growth (%)

{"compound": "C/C(=C(/C)C1CC1CCN(C(=O)c1ccccn1)S(=O)(=O)c1ccc(C)cc1)C1CCCCC1 (centres undefined)", "test-readout": "growth", "observed-result": 78.5}
{"compound": "COc1cc(-c2nc(SCc3ccc(C)cc3)[nH]c(=O)c2C#N)ccc1OCc1ccccc1", "test-readout": "growth", "observed-result": 109}
{"compound": "CN(C)CCn1c2ccc(N)cc2c2nc3ccccc3nc21", "test-readout": "growth", "observed-result": 36.4}
{"compound": "O=C(Nc1ccc(F)cc1)c1cc(-c2ccc(F)cc2F)ccc1O", "test-readout": "growth", "observed-result": -4.71}
{"compound": "CCCC(=O)NC(c1cccnc1)c1ccc2c(C)ccnc2c1O (centres undefined)", "test-readout": "growth", "observed-result": 20.7}
{"compound": "CC1(C)CC[C@]2(C(=O)N3CCCNCC3)CC[C@]3(C)C(=CC[C@@H]4[C@@]5(C)CCC(=O)C(C)(C)[C@@H]5CC[C@]43C)[C@H]2C1", "test-readout": "growth", "observed-result": 100}
{"compound": "Clc1ccc(-c2csc(N/N=C/c3nc4ccccc4n3C3CC3)n2)cc1", "test-readout": "growth", "observed-result": 111}
{"compound": "CN1CCN(c2nc(-c3csc(-c4ccncc4)n3)cc3ccccc23)CC1", "test-readout": "growth", "observed-result": 55.9}
{"compound": "O=C(CN1CCN(c2cc(=O)n(-c3ccccc3)c3ccccc23)CC1)Nc1ccc([N+](=O)[O-])cc1", "test-readout": "growth", "observed-result": 64.9}
